# assayExplanation: NCI Yeast Anticancer Drug Screen. Data for the cln2 rad14 strain (AID 165);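 note: 0% = growth equal to vehicle treated cultures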
# conditionSummary: S. cerevisiae cln2 rad14 strain, at 50.0 µM, stronger effect = higher value
This is part of a sample that, as a whole, favours compounds with a hit. Of some 79,000 tested, about 15% had one in any assay.
What growth inhibition was measured for each of the following?
Write down the numeric answer in % and omit the unit.

Problem: Field request: growth inhibition | item: O=C(CO)C(O)C(O)C(O)CO (configuration not stated)
Result: 8.75

Problem: Field request: growth inhibition | item: O=c1[nH]c2nc(Cl)nc(Cl)c2[nH]1
Result: 12.1

Problem: Field request: growth inhibition | item: O=C1NC(=O)C(CCI)N1 (configuration not stated)
Result: 16.9

Problem: Field request: growth inhibition | item: CCCC(=O)NC(C)(C)C
Result: 2.9

Problem: Field request: growth inhibition | item: CC(=O)NC1c2ccccc2Oc2c(C)cccc21 (configuration not stated)
Result: -15.9

Problem: Field request: growth inhibition | item: CCC(O)(Cc1ccc(OC)cc1)c1ccc(OC)cc1 (configuration not stated)
Result: 1.4

Problem: Field request: growth inhibition | item: CC1CCCN(P(c2ccccc2)N2CCCC(C)C2)C1 (configuration not stated)
Result: 15.4

Problem: Field request: growth inhibition | item: O=C(O)C(O)(C1CCCCC1)C1CCC2CCC3CCCC1C32 (configuration not stated)
Result: 12.7

Problem: Field request: growth inhibition | item: CCCCCC1OC1CC1OC1CCCCCCCC(=O)O (configuration not stated)
Result: -14.8

Problem: Field request: growth inhibition | item: CC1Cc2c(cc(N)nc2Br)NC1=O (configuration not stated)
Result: 19.2

Problem: Field request: growth inhibition | item: CCCCCCCCCCCCCCCCCC1=Nc2cc(C)c(C)cc2NC(=O)C1
Result: 7.35

Problem: Field request: growth inhibition | item: CCCCCCCCCCCCCCCC(=O)OC/C=C/COC(=O)c1ccccc1
Result: -2.95

Problem: Field request: growth inhibition | item: C(/C=C/c1ccccc1)=C1SCCCS1
Result: -18.9

Problem: Field request: growth inhibition | item: Cn1cnc([N+](=O)[O-])c1Sc1nnc(C(F)(F)F)n1C
Result: 7.5

Problem: Field request: growth inhibition | item: O=C1CCCS(=O)(=O)CCC1
Result: -3.5

Problem: Field request: growth inhibition | item: NNc1ncnc2ccc(Cl)cc12
Result: 1.05

Problem: Field request: growth inhibition | item: Cc1ccc(/C=C/C(=O)c2sc(C(N)=S)nc2C)cc1
Result: 16.3

Problem: Field request: growth inhibition | item: CN(CN(C)N=Nc1ccc(Br)cc1)CN(C)N=Nc1ccc(Br)cc1
Result: 23.2

Problem: Field request: growth inhibition | item: Cn1c(=O)n2c(-c3ccccc3)c(-c3ccccc3)n2c1=O
Result: 0.5

Problem: Field request: growth inhibition | item: Cc1cccc(C)c1NC(=O)Nc1cccc(C(F)(F)F)c1
Result: -22.4

Problem: Field request: growth inhibition | item: COc1ccc(/C=C/C(=N\NC(=O)c2ccccc2)c2sc(Nc3ccc([N+](=O)[O-])cc3)nc2C)cc1OC
Result: 22.8

Problem: Field request: growth inhibition | item: COc1cccc(C(=O)c2ccc(OC)cc2C(=O)O)c1
Result: -31.9

Problem: Field request: growth inhibition | item: O=C1c2ccccc2C(=O)N1CCCO
Result: -23.8

Problem: Field request: growth inhibition | item: CC1(C)CC2C(C1=O)C1(C)CCCC2(C)C1=O (configuration not stated)
Result: -14.8

Problem: Field request: growth inhibition | item: O=C(NNC(=S)NCc1ccccc1)C12CC3CC(CC(C3)C1)C2
Result: 2.55

Problem: Field request: growth inhibition | item: COC(=O)c1nn2c(=O)n(C(C)=O)c3ccccc3c2c1C(=O)OC
Result: 15.8

Problem: Field request: growth inhibition | item: Cc1cc(C)c2cnnn2n1
Result: 15.4

Problem: Field request: growth inhibition | item: Clc1ccccc1/C=C/c1ccnnc1
Result: 7

Problem: Field request: growth inhibition | item: O=[N+]([O-])c1ccc(CC(Cl)c2ccccn2)cc1 (configuration not stated)
Result: -11.4

Problem: Field request: growth inhibition | item: CSc1nc(N)c(NS(=O)(=O)c2ccccc2)c(=O)[nH]1
Result: -2.9

Problem: Field request: growth inhibition | item: COc1ccc2c(=O)c(O)c(-c3ccc(OC)c(OC)c3)oc2c1
Result: -9.1

Problem: Field request: growth inhibition | item: CN(C)Cc1cc(C(C)(C)C)cc(CN(C)C)c1O
Result: -20.1

Problem: Field request: growth inhibition | item: Nc1nc(N)c2nc(C(=O)O)c(C(=O)O)nc2n1
Result: -15.8

Problem: Field request: growth inhibition | item: NC(CC1C(=O)Nc2ccccc21)C(=O)O (configuration not stated)
Result: -60.6

Problem: Field request: growth inhibition | item: CC1CCCCC12COC(O)CO2 (configuration not stated)
Result: -11.7

Problem: Field request: growth inhibition | item: C=C1CC(OC(C)=O)/C=C(/C)CCC(C(C)(C)O)CC1O (configuration not stated)
Result: 7.65

Problem: Field request: growth inhibition | item: COC(=O)C1CC(=O)N(CCCl)C1 (configuration not stated)
Result: -18.1

Problem: Field request: growth inhibition | item: CSC(=N\N=C(/C)c1ccc(Br)cc1)/N=C/N(C)C
Result: 19

Problem: Field request: growth inhibition | item: CC1=Nc2c(C)noc2CC(c2ccccc2O)C1 (configuration not stated)
Result: 27.2

Problem: Field request: growth inhibition | item: COc1cc(O)c(C(C)=O)c(OC)c1
Result: -31.1

Problem: Field request: growth inhibition | item: O=C(Nc1ccccc1Br)c1cccc([N+](=O)[O-])c1O
Result: 38.2

Problem: Field request: growth inhibition | item: CC1CC[P+](c2ccccc2)(c2ccccc2)CC1
Result: 4.5

Problem: Field request: growth inhibition | item: CCOC(=O)c1ccccc1S(=O)(=O)c1ccccc1C(=O)OCC
Result: 11.2

Problem: Field request: growth inhibition | item: CC(=O)Nc1cc(Cl)ccc1C
Result: 16.1

Problem: Field request: growth inhibition | item: CCC12C[N+]3([O-])CCc4c([nH]c5ccccc45)C(C(=O)OC)(c4cc5c(cc4OC)N(C)C4C(O)(C(=O)OC)C(OC(C)=O)C6(CC)C=CCN7CCC54C76)CC(C3)C1O2 (configuration not stated)
Result: -9.8

Problem: Field request: growth inhibition | item: O=P(CCCCBr)(NCc1ccccc1)c1ccccc1 (configuration not stated)
Result: -19.9

Problem: Field request: growth inhibition | item: CC12CCC(CC1)C2(C)C
Result: -4.8

Problem: Field request: growth inhibition | item: CCCC(CCC)C(=O)[O-].CCCC(CCC)C(=O)[O-].CCCC(CCC)C(=O)[O-].CCCC(CCC)C(=O)[O-].[Cu+2].[Cu+2]
Result: 19.9

Problem: Field request: growth inhibition | item: CC(=O)c1cc2c(cc1C)C(C)(C)CCC2
Result: -47.7

Problem: Field request: growth inhibition | item: CC(=O)Nc1ccc(C(F)(F)F)cc1
Result: -3.15

Problem: Field request: growth inhibition | item: Cc1ccc2c(c1)C1(c3ccc(Cl)c(Cl)c3)Oc3ccc(C)cc3C(c3ccc(Cl)c(Cl)c3)(O2)O1
Result: 2.15

Problem: Field request: growth inhibition | item: COC(=O)c1ccccc1NN=Nc1ccccc1Cl
Result: 8.3
